Tested on: MM1.S
experiment_notes: Cytotoxic activity against human MM1S cells assessed as reduction in cell viability incubated for 3 days by ATPlite assay
Assay type: functional, cell-based
condition_description: mm1.s

- compound_string: "Cc1ccc(C)n1-c1cc(C(=O)N/N=C/c2ccc(-c3cncnc3)cc2)ccc1C(=O)O"
  EC50: "Not Active"
- compound_string: "Cc1ccc(C)n1-c1cc(C(=O)N/N=C/c2ncc[nH]2)ccc1C(=O)O"
  EC50: "Not Active"
- compound_string: "CN1CCN(c2ccccc2C(=O)O)CC1"
  EC50: "Not Active"
- compound_string: "Cc1ccc(C)n1-c1cc(C(=O)N/N=C/c2ccc(O)cc2)ccc1C(=O)O"
  EC50: "Not Active"
- compound_string: "Cc1ccc(C)n1-c1cc(C(=O)N/N=C/c2ccc(C(=O)O)o2)ccc1C(=O)O"
  EC50: "Not Active"
- compound_string: "Cc1ccc(C)n1-c1cc(C(=O)N/N=C\\c2cccc(C(=O)O)c2)ccc1C(=O)O"
  EC50: "Not Active"
- compound_string: "Cc1ccc(C)n1-c1cc(C(=O)N/N=C/c2cccc3ncccc23)ccc1C(=O)O"
  EC50: "Not Active"
- compound_string: "Cc1ccc(C)n1-c1cccc(C(=O)c2ccccc2)c1C(=O)O"
  EC50: "Not Active"
- compound_string: "Cc1ccc(C)n1-c1ccc(Cl)cc1C(=O)O"
  EC50: "Not Active"
- compound_string: "Cc1ccc(C)n1-c1cc(C(=O)N/N=C/c2ccccc2N2CCOCC2)ccc1C(=O)O"
  EC50: "Not Active"

----------
Items are presented alongside their recorded pIC50.
tested_system: Myc proto-oncogene protein (Homo sapiens, UniProt P01106)
Sequence (P01106 whole entry): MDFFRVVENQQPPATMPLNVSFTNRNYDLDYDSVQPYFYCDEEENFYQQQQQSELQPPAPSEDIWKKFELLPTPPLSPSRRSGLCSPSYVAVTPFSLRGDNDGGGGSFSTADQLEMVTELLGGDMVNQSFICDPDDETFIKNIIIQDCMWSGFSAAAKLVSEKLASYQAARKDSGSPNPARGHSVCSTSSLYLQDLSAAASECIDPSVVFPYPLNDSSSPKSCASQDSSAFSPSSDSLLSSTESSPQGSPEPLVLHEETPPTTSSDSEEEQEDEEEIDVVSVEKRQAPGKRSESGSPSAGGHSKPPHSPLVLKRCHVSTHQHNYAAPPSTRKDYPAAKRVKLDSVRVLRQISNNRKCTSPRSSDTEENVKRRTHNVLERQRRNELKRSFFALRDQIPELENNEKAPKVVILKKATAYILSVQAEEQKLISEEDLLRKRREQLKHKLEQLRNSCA
experiment_notes: Inhibition of human c-Myc assessed as reduction in c-Myc/Max/Ebox DNA complex formation using pre-formed complex of c-Myc and biotinylated DNA containing single Ebox-sequence followed by compound addition and further addition of his6-tagged c-Max and incubated for 2 hrs by AlphaScreen assay
condition_description: read-out: IC50
pIC50: −log10 of the molar value.

- compound_string: "Cc1ccc(C)n1-c1cc(C(=O)O)ccc1C(=O)O"
  pIC50: 6.10
- compound_string: "Cc1ccc(C)n1-c1cc(C(=O)NCCc2cccc(C(=O)O)c2)ccc1C(=O)O"
  pIC50: 5.14
- compound_string: "Cc1c(C)c(C)n(-c2ccccc2C(=O)O)c1C"
  pIC50: 4.08
- compound_string: "Cc1ccc(C)n1-c1cc(C(=O)N/N=C/c2ccccc2N2CCOCC2)ccc1C(=O)O"
  pIC50: 5.15

----------
The following compounds are listed with their measured pEC50 values.
Test system: NCI-H2171
experiment_notes: Cytotoxic activity against human NCI-H2171 cells assessed as reduction in cell viability incubated for 3 days by ATPlite assay
Assay type: functional, cell-based
condition_description: Homo sapiens, NCI-H2171, 72 h; read-out: EC50
pEC50: −log10 of the molar value.

- compound_string: "CC(=O)OCOC(=O)c1ccc(C(=O)N/N=C/c2ccc(O)c(O)c2O)cc1-n1c(C)ccc1C"
  pEC50: 5.65
- compound_string: "Cc1ccc(C)n1-c1cc(C(=O)N/N=C/c2c[nH]c3ccc(C#N)cc23)ccc1C(=O)O"
  pEC50: 2.49

----------
Test system: NCI-H2171
experiment_notes: Cytotoxic activity against human NCI-H2171 cells assessed as reduction in cell viability incubated for 3 days by ATPlite assay
Format: functional, cell-based
condition_description: Homo sapiens, NCI-H2171, 72 h; read-out: EC50
# key: entry, value: EC50
measure: EC50

- compound_string: "CC(=O)OCOC(=O)c1ccccc1-n1c(C)ccc1C"
  tested_system: "NCI-H2171"
  measured: "20.7 to 29.9 µM"
- compound_string: "Cc1ccc(C)n1-c1ccc(C(=O)O)c(O)c1"
  tested_system: "NCI-H2171"
  measured: "189 to 517 µM"
- compound_string: "CC(=O)OCOC(=O)c1ccc(-n2c(C)ccc2C)cc1O"
  tested_system: "NCI-H2171"
  measured: "2.8 to 66.1 µM"
